Experiment: Phytosphingosine solubility with various cyclodextrins in aqueous solution
Assay type: physicochemical
Details: aqueous 2-hydroxypropyl-α-cyclodextrin solution, aqueous with cosolvent or surfactant or cyclodextrin, thermodynamic from solid; excess of pure phytosphingosine (20 g/l) incubated with 2-hydroxypropyl-α-cyclodextrin solution; quantified by LC-MS; read-out: Solubilized phytosphingosine in the supernatants
Method: Phytosphingosine amounts (mg/l) measured in supernatants after incubation of an excess of pure phytosphingosine (20 g/l) with each of the three types of cyclodextrin at various concentrations. These experiments were conducted to determine if and to what extent cyclodextrins solubilized sphingoid bases. […] Solubilized phytosphingosine in the supernatants were quantified by liquid chromatography-mass spectrometry (LC-MS) using standards prepared in the same cyclodextrin solutions.
MEASURE: solubility

stdin: Query: solubility; subject: "CCCCCCCCCCCCCC[C@@H](O)[C@@H](O)[C@@H](N)CO"
stdout: > 9 mg/mL
